Hey, just so you know, these numbers are from ChEMBL document CHEMBL1128904.

target or system: Cholecystokinin receptor type A (Rattus norvegicus, UniProt P30551)
Sequence (P30551 whole entry): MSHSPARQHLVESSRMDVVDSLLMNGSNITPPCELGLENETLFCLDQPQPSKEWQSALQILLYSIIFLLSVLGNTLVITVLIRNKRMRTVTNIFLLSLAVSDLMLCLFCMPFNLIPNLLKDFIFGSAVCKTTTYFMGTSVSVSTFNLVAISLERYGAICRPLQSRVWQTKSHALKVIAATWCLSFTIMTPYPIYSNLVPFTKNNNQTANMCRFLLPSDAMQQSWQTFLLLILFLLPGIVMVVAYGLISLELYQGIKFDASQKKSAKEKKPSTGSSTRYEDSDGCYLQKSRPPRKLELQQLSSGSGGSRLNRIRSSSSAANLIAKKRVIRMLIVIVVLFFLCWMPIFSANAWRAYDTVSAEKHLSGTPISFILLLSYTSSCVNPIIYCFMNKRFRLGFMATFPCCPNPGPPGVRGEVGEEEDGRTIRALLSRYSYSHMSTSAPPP
pIC50: −log10 of the molar value.
reported metric: pIC50

{"smiles notation": "Cc1cccc(NC(=O)N[C@@H]2N=C(c3ccccc3)c3ccccc3N(CC(=O)c3ccccc3C)C2=O)c1", "test result": 6.84}

----------
target or system: Gastrin/cholecystokinin type B receptor (Rattus norvegicus, UniProt P30553)
Sequence (P30553 whole entry): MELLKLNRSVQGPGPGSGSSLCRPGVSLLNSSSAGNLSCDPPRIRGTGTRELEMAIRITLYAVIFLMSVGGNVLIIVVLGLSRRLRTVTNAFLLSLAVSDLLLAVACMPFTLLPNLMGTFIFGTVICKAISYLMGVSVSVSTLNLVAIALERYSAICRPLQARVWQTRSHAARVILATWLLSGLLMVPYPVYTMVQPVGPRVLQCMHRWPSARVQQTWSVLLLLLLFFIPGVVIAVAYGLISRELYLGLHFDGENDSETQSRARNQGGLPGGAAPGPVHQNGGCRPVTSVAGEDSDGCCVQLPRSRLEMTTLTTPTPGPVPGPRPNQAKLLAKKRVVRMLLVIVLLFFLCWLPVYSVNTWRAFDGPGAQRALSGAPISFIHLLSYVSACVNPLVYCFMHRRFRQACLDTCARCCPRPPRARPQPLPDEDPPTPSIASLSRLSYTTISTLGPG
pIC50: −log10 of the molar value.
List of pIC50 values.
reported metric: pIC50

{"compound": "Cc1cccc(NC(=O)NC2N=C(c3ccccc3)c3ccccc3N(CC(=O)C3CCCCC3)C2=O)c1 (configuration not stated)", "test result": 9.40}
{"compound": "Cc1cccc(NC(=O)NC2N=C(c3ccccc3)c3ccccc3N(CC(=O)C(C)C)C2=O)c1 (configuration not stated)", "test result": 8.68}
{"compound": "Cc1cccc(NC(=O)NC2N=C(c3ccccc3)c3ccccc3N(CC(=O)C3CCCCCC3)C2=O)c1 (configuration not stated)", "test result": 8.70}
{"compound": "Cc1cccc(NC(=O)NC2N=C(c3ccccc3)c3ccccc3N(CC(=O)C3(C)CCCC3)C2=O)c1 (configuration not stated)", "test result": 10.00}
{"compound": "Cc1cccc(NC(=O)N[C@H]2N=C(c3ccccc3)c3ccccc3N(CC(=O)C3CCCC3)C2=O)c1", "test result": 8.21}
{"compound": "Cc1cccc(NC(=O)NC2N=C(c3ccccc3)c3ccccc3N(CC(=O)C3CCC3)C2=O)c1 (configuration not stated)", "test result": 8.63}
{"compound": "Cc1cccc(NC(=O)NC2N=C(c3ccccc3)c3ccccc3N(CC(=O)C3(C)CCCCC3)C2=O)c1 (configuration not stated)", "test result": 9.42}

----------
A short record of IC50 observed with Gastrin/cholecystokinin type B receptor (Rattus norvegicus, UniProt P30553) follows.
reported metric: IC50 (nM)

{"compound": "Cc1cccc(NC(=O)NC2N=C(c3ccccc3)c3ccccc3N(CC(=O)C(C)(C)C)C2=O)c1 (stereo not drawn)", "test result": 0.52}
{"compound": "Cc1cccc(NC(=O)NC2N=C(c3ccccc3)c3ccccc3N(CC(=O)C3CCCC3)C2=O)c1 (stereo not drawn)", "test result": 0.23}
{"compound": "Cc1cccc(NC(=O)N[C@@H]2N=C(c3ccccc3)c3ccccc3N(CC(=O)c3ccccc3C)C2=O)c1", "test result": 0.11}
{"compound": "Cc1cccc(NC(=O)NC2N=C(c3ccccc3)c3ccccc3N(CC(=O)C3(C)CC3)C2=O)c1 (stereo not drawn)", "test result": 0.41}
{"compound": "CCC(C)(C)C(=O)CN1C(=O)C(NC(=O)Nc2cccc(C)c2)N=C(c2ccccc2)c2ccccc21 (stereo not drawn)", "test result": 0.57}
{"compound": "Cc1cccc(NC(=O)NC2N=C(c3ccccc3)c3ccccc3N(CC(=O)CC3CCCCC3)C2=O)c1 (stereo not drawn)", "test result": 0.28}
{"compound": "Cc1cccc(NC(=O)NC2N=C(c3ccccc3)c3ccccc3N(CC(=O)C(C)(C)C3CCCCC3)C2=O)c1 (stereo not drawn)", "test result": 0.86}
{"compound": "CCC(CC)C(=O)CN1C(=O)C(NC(=O)Nc2cccc(C)c2)N=C(c2ccccc2)c2ccccc21 (stereo not drawn)", "test result": 1.9}
